system-under-test: α2C-adrenoceptor (Homo sapiens)
Sequence (P18825 1-462): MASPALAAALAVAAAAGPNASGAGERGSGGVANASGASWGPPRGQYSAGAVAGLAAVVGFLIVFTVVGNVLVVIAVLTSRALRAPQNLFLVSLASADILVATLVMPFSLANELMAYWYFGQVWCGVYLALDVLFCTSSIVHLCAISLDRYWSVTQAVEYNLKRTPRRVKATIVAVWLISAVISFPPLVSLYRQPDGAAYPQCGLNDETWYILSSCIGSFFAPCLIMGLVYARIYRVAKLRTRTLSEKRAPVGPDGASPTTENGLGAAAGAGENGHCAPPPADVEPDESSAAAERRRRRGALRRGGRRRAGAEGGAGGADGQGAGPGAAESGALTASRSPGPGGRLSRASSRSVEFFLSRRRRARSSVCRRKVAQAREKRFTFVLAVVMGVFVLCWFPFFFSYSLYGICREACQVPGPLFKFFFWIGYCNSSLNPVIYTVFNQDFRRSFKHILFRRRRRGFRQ
method-summary: α2c-Adrenoceptor binding test (3H-MK-912 binding, HepG2 cell membrane fraction)
Design: the membrane fraction of the cultured cells was used; endogenous in cells; host or cells: HepG2 (human hepatoma) cell membrane fraction
recorded-conditions: 0.5 h, test compound 10^−7 mol/l, read-out: Inhibition ratio (%) against α2c-adrenoceptor binding
Assign class by inhibition at 0.1 µM: not lower than 80% means true (1); lower than 80% means false (0).

{"columns": ["smiles-code", "system-under-test", "cat"],
 "data": [
  ["Nc1ncc(CN2CCN(c3ccccc3)CC2)c2nc(C3CCCCC3)nn12", "α2C-adrenoceptor (Homo sapiens)", "true (1)"],
  ["COCCNc1ncc(CN2CCc3ccccc3C2)c2nc(-c3ccco3)nn12", "α2C-adrenoceptor (Homo sapiens)", "false (0)"],
  ["O=c1[nH]cc(CN2CCN(c3ccccc3)CC2)c2nc(-c3ccco3)nn12", "α2C-adrenoceptor (Homo sapiens)", "false (0)"],
  ["Cc1ccccc1N1CCN(Cc2cnc(N)n3nc(-c4ccco4)nc23)CC1", "α2C-adrenoceptor (Homo sapiens)", "true (1)"],
  ["Nc1ncc(CN2CCN(c3ccccc3F)CC2)c2nc(-c3ccco3)nn12", "α2C-adrenoceptor (Homo sapiens)", "true (1)"]
]}
